biological target: MAGI1_5, Q96QZ7; experiment: holdup assay; design: key: below the threshold = too weak to quantify, mostly under pKd 3.1 to 4; details: plain residues with an end cap or a label only (N-terminal biotin on a linker: ttds)
Sequence (Q96QZ7 986-1098): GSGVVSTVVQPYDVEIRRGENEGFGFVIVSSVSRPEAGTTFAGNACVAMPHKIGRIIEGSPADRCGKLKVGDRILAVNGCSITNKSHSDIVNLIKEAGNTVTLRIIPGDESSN
Record true whenever pKd is at 5 or higher; record false when lower.

INSERT INTO results (binder, discretelabel) VALUES
  ('QRQARSETLV [HPV59-E6, Q81964]', 'true'),
  ('SSLQSLETSV [ATP2B4, P23634]', 'false'),
  ('RLPKIKETTV [FRMPD4, Q14CM0]', 'false');

Asked: Reported pKd at or above 5? SGSRPSATVV [HPV73-E6, Q82005]
Given back: false

Asked: Reported pKd at or above 5? SKPTRRETEV [HPV35-E6, P27228]
Given back: false
